Reported IC50 is given for each of the following molecules.
Measured Target: Integrase (Human immunodeficiency virus 1, UniProt Q7ZJM1)
Sequence (Q7ZJM1 whole entry): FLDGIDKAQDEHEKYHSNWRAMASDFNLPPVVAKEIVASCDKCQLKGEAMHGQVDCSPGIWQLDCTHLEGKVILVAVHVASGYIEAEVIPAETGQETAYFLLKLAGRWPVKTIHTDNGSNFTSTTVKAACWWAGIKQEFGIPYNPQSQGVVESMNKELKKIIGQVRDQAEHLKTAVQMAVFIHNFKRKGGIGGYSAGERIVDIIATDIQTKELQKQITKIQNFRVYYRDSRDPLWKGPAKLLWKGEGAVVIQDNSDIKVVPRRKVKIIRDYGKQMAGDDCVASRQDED
Assay Name: Inhibition of strand transfer activity of HIV1 integrase

| Molecule | IC50 |
| --- | --- |
| O=C1C(=O)N(CCCN2CCOCC2)C(c2ccccc2F)C1C(=O)c1ccc(F)cc1 (stereo unspecified) | > 1000 µM |
| NCCCCCCNC(=O)c1c(O)c2ccccc2oc1=O | > 100 µM |
| CN(C)CCCN1C(=O)C(=O)C(C(=O)c2cccs2)C1c1cccs1 (stereo unspecified) | > 100 µM |
| COc1ccc(C2C(C(=O)c3ccc(F)cc3)C(=O)C(=O)N2CCN(C)C)cc1OC (stereo unspecified) | > 1000 µM |
| Cc1ccc(C(=O)C2C(=O)C(=O)N(CCN(C)C)C2c2ccccc2F)cc1 (stereo unspecified) | > 1000 µM |
| COc1ccc(C2C(C(=O)c3ccccc3)C(=O)C(=O)N2CCCO)cc1OC (stereo unspecified) | > 100 µM |

These data points were gathered from BindingDB's records for doi:10.1021/jm0510629.
